Where do the numbers come from? From patent US8143408B2.

- measured-on: Nav1.7 voltage-gated sodium channel (Homo sapiens, UniProt Q15858)
- Construct: Gene(s) encoding the full-length protein of the voltage-gated sodium channel of interest are cloned and expressed
- Sequence (Q15858 whole entry): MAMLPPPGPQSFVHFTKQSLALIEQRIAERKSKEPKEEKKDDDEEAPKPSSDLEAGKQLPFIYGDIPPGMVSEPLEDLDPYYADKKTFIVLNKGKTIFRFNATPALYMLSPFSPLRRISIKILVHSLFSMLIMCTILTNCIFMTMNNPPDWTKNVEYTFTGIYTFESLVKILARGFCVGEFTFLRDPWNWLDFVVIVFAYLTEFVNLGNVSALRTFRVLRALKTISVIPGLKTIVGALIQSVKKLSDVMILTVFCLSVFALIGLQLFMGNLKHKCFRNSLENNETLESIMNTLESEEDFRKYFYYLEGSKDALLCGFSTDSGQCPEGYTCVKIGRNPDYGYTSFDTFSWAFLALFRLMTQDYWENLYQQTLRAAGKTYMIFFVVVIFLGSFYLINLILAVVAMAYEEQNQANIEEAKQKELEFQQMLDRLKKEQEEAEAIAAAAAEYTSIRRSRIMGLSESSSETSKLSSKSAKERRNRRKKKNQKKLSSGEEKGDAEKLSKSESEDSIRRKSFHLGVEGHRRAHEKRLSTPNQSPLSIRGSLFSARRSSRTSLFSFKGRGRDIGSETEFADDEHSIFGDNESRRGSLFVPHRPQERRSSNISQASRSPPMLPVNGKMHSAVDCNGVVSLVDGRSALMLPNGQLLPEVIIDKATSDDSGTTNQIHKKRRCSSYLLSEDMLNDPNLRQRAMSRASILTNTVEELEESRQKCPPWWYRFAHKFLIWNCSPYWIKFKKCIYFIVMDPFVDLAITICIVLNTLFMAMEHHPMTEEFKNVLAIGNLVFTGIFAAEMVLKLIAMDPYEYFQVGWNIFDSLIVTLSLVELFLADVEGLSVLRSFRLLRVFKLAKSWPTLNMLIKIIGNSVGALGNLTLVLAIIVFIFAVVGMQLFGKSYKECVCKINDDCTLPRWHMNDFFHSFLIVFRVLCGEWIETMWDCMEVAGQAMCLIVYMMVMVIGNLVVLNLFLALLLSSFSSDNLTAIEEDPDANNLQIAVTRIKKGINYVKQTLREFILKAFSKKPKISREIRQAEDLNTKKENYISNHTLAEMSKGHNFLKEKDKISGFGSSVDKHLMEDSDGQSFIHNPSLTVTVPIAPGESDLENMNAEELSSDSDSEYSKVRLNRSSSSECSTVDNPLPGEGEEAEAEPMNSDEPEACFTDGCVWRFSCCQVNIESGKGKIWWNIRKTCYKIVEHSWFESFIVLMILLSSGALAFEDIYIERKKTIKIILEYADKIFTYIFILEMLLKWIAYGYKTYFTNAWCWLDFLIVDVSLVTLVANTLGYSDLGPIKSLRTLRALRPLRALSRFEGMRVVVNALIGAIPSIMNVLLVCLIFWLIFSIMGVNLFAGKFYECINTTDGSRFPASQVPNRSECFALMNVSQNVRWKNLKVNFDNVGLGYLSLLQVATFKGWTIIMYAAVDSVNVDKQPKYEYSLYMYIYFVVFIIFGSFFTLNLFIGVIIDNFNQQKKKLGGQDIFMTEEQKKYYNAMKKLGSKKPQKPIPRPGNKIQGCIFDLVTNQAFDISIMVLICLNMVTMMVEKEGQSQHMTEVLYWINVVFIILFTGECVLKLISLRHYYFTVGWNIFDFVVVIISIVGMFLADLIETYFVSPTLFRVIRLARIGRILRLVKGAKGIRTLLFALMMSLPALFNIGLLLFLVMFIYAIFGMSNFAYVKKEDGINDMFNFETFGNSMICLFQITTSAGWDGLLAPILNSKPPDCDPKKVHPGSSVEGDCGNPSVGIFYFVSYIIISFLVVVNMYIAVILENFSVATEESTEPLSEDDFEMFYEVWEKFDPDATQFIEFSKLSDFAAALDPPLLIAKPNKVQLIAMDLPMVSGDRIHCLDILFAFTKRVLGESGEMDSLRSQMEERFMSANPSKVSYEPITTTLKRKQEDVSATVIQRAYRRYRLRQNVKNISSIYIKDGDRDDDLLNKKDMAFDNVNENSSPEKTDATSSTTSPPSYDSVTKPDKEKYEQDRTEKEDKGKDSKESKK
- test-description: Whole-cell voltage clamp electrophysiology assay
- run-conditions: cells stably expressing the voltage-gated sodium channel of interest
This section presents molecules with their documented log10 of IC50 values.
// stored as log10 of IC50 expressed in nM

Consider the following illustrative entries.
O=C(N[C@@H]1CCc2cccc(-c3ccncc3)c2C1)c1ccc(OS(=O)(=O)C(F)(F)F)cc1; 2.40
COc1ncc(-c2cccc3c2C[C@H](NC(=O)c2ccc(OCC4COCCO4)nc2)CO3)cc1F (stereo partly shown); 2.70
O=C(N[C@@H]1COc2cccc(-c3ccnnc3)c2C1)c1ccc(OCC(F)(F)F)nc1; 3.40
O=C(N[C@@H]1COc2cccc(-c3ccnc(F)c3)c2C1)c1ccc(OCCC(F)(F)F)nc1; 1.90
O=C(N[C@@H]1COc2cccc(-c3ccncc3)c2C1)c1ccc(OCCC(F)(F)F)nc1; 1.90
Cc1ncc(-c2cccc3c2C[C@H](NC(=O)c2ccc(OC4CCOC4)nc2)CC3)cn1 (stereo partly shown); 3.80

Qu. Value lookup for log10 of IC50; key = Cc1ncc(-c2cccc3c2C[C@H](NC(=O)c2ccc(OCCOCC(F)(F)F)nc2)CO3)cn1
Ans. 1.90

Qu. Value lookup for log10 of IC50; key = COc1cc(-c2cccc3c2C[C@H](NC(=O)c2ccc(OCC4COCCO4)nc2)CO3)ccn1 (stereo partly shown)
Ans. 2.20

Qu. Value lookup for log10 of IC50; key = O=C(N[C@@H]1CCc2cccc(-c3ccnnc3)c2C1)c1ccc(OC2CCCOC2)nc1 (stereo partly shown)
Ans. 3.90

Qu. Value lookup for log10 of IC50; key = COc1ncc(-c2cccc3c2C[C@H](NC(=O)c2ccc(S(=O)(=O)C4CCCC4)nc2)CO3)cn1
Ans. 2.70

Qu. Value lookup for log10 of IC50; key = O=C(N[C@@H]1COc2cccc(-c3cnc(C4CC4)nc3)c2C1)c1ccc(OCC(F)(F)F)nc1
Ans. 2.10

Qu. Value lookup for log10 of IC50; key = COc1cc(-c2cccc3c2C[C@H](NC(=O)c2ccc(OC(C)C)nc2)CO3)ccn1
Ans. 2.60

Qu. Value lookup for log10 of IC50; key = Cc1cnccc1-c1cccc2c1C[C@H](NC(=O)c1ccc(OC(C)C)nc1)CO2
Ans. 2.20

Qu. Value lookup for log10 of IC50; key = O=C(N[C@@H]1COc2cccc(-c3cccnc3)c2C1)c1ccc(OCCC(F)(F)F)nc1
Ans. 1.60

Qu. Value lookup for log10 of IC50; key = CC(C)Oc1ccc(C(=O)N[C@@H]2COc3cccc(-c4cccnc4)c3C2)cn1
Ans. 1.80

Qu. Value lookup for log10 of IC50; key = O=C(N[C@@H]1COc2cccc(-c3ccncc3)c2C1)c1ccc(OCc2nccs2)nc1
Ans. 3.00

* * *

- measured-on: Nav1.7 voltage-gated sodium channel (Homo sapiens, UniProt Q15858)
- Construct: Gene(s) encoding the full-length protein of the voltage-gated sodium channel of interest are cloned and expressed
- test-description: Whole-cell voltage clamp electrophysiology assay
- run-conditions: cells stably expressing the voltage-gated sodium channel of interest
property-name: pIC50
Answer as the number alone; pIC50 is minus log10 of concentration in mol/L.

Qu. Value lookup for pIC50; key = COc1ncc(-c2cccc3c2C[C@H](NC(=O)c2ccc(C(=O)NCCCOC(C)C)nc2)CO3)cn1
Ans. 5.80

Qu. Value lookup for pIC50; key = COCCOc1ccc(C(=O)N[C@@H]2COc3cccc(-c4ccncc4)c3C2)cn1
Ans. 5.70

Qu. Value lookup for pIC50; key = COc1ncc(-c2cccc3c2C[C@H](NC(=O)c2ccc(OCCOCC(F)(F)F)nc2)CC3)cn1
Ans. 6.30

Qu. Value lookup for pIC50; key = CC(C)Oc1ccc(C(=O)N[C@@H]2CCc3cccc(-c4ccncc4)c3C2)cn1
Ans. 6.60

* * *

- measured-on: Nav1.7 voltage-gated sodium channel (Homo sapiens, UniProt Q15858)
- Construct: Gene(s) encoding the full-length protein of the voltage-gated sodium channel of interest are cloned and expressed
- test-description: Whole-cell voltage clamp electrophysiology assay
- run-conditions: cells stably expressing the voltage-gated sodium channel of interest
This section presents compounds with their documented pIC50 values.
Answer as the number alone; pIC50 is minus log10 of concentration in mol/L.

CCCCn1ccc(C(=O)N[C@@H]2COc3cccc(-c4cnc(F)c(C)c4)c3C2)cc1=O; 5.90
COCCOc1ccc(C(=O)N[C@@H]2COc3cccc(-c4cccnc4)c3C2)cn1; 6.10
COc1ncc(-c2cccc3c2C[C@H](NC(=O)c2ccc(OC4CCC4)nc2)CO3)cn1; 6.60

Now examine the next entry.
Qu. Value lookup for pIC50; key = Cc1cnc(-c2cccc3c2C[C@H](NC(=O)c2ccc(OCCCF)nc2)CO3)c(C)n1
Ans. 5.40

* * *

- measured-on: Nav1.7 voltage-gated sodium channel (Homo sapiens)
- Construct: Gene(s) encoding the full-length protein of the voltage-gated sodium channel of interest are cloned and expressed; expressed in transfected cells
- test-description: Whole-cell voltage clamp electrophysiology assay
- Format: cell-based
- run-conditions: cells stably expressing the voltage-gated sodium channel of interest
property-name: log10 of IC50 (log10 of the value in nM)
// stored as log10 of IC50 expressed in nM

Consider the following illustrative entries.
CC(C)Oc1cnc(C(=O)N[C@@H]2COc3cccc(-c4ccncc4)c3C2)cn1; 2.80
COc1ncc(-c2cccc3c2C[C@H](NC(=O)c2ccc(OC(C)C)nc2)CC3)cn1; 3.40
O=C(N[C@@H]1COc2cccc(-c3cccnc3)c2C1)c1ccc2cccnc2n1; 3.10

Qu. Value lookup for log10 of IC50; key = O=C(N[C@@H]1COc2cccc(-c3ccncc3)c2C1)c1ccc(OCC2CC2)nc1
Ans. 2.30

Qu. Value lookup for log10 of IC50; key = Cc1ncc(-c2cccc3c2C[C@H](NC(=O)c2ccc(OCCCF)nc2)CO3)cn1
Ans. 2.20

Qu. Value lookup for log10 of IC50; key = O=C(N[C@@H]1COc2cccc(-c3ccncc3)c2C1)c1ccc(OC(F)(F)F)cc1
Ans. 2.60

Qu. Value lookup for log10 of IC50; key = COc1ncc(-c2cccc3c2C[C@H](NC(=O)c2ccc(OCC(F)(F)F)nc2)CC3)cn1
Ans. 2.70

Qu. Value lookup for log10 of IC50; key = Cc1cnc(-c2cccc3c2C[C@H](NC(=O)c2ccc(OCCOCC(F)(F)F)nc2)CO3)c(C)n1
Ans. 2.90

* * *

- measured-on: Nav1.7 voltage-gated sodium channel (Homo sapiens, UniProt Q15858)
- Construct: Gene(s) encoding the full-length protein of the voltage-gated sodium channel of interest are cloned and expressed
- test-description: Whole-cell voltage clamp electrophysiology assay
- run-conditions: cells stably expressing the voltage-gated sodium channel of interest
property-name: IC50 (µM)
Numeric only. Scale: µM

Cc1ccc(-c2cccc3c2C[C@H](NC(=O)c2cnc(OC4CCCOC4)nc2)CC3)cn1 (stereo partly shown); 1.58
Cc1n[nH]c(C)c1-c1cccc2c1C[C@H](NC(=O)c1ccc(OC(F)(F)F)cc1)CC2; 6.31
COc1ncc(-c2cccc3c2C[C@@H](NC(=O)c2ccc(OC4CCOCC4)nc2)CC3)cn1; 6.31

Now examine the next entry.
Qu. Value lookup for IC50; key = CC(C)Oc1ccc(C(=O)N[C@@H]2CCc3cccc(-c4ccnnc4)c3C2)cn1
Ans. 3.16

* * *

- measured-on: Nav1.7 voltage-gated sodium channel (Homo sapiens)
- Construct: Gene(s) encoding the full-length protein of the voltage-gated sodium channel of interest are cloned and expressed
- test-description: Whole-cell voltage clamp electrophysiology assay
- run-conditions: cells stably expressing the voltage-gated sodium channel of interest
This section presents compounds with their documented IC50 values.

Consider the following illustrative entries.
O=C(N[C@@H]1COc2cccc(-c3ccncc3)c2C1)c1ccc(OC(CF)CF)nc1 [Example 27]; 0.631 µM
COc1ncc(-c2cccc3c2C[C@H](NC(=O)c2ccnc(OCCOCC(F)(F)F)c2)CO3)cn1 [Example 172]; 0.2 µM
COc1ccc(C(=O)N[C@@H]2COc3cccc(-c4ccncc4)c3C2)c(OC)c1 [Example 22]; 6.31 µM
O=C(N[C@@H]1COc2cccc(-c3ccncc3)c2C1)c1cnc2ccccc2n1 [Example 41]; 5.01 µM
O=C(N[C@@H]1COc2cccc(-c3ccncc3)c2C1)c1ccc(OC2CCCC2)nc1 [Example 21]; 0.0631 µM
O=C(N[C@@H]1COc2cccc(-c3ccc4nccn4c3)c2C1)c1ccc(OCC(F)(F)F)nc1 [Example 91]; 0.0794 µM
COc1ccc(C(=O)N[C@@H]2CCc3cccc(-c4ccncc4)c3C2)c(OC)c1 [Example 16]; 2 µM
COc1ncc(-c2cccc3c2C[C@H](NC(=O)c2ccc(C(=O)N(C)CC(F)(F)F)nc2)CO3)cc1F [Example 192]; 0.631 µM

Qu. Value lookup for IC50; key = COc1ncc(-c2cccc3c2C[C@H](NC(=O)c2ccc(OCCOC(C)C)nc2)CO3)cn1 [Example 184]
Ans. 0.501 µM

Qu. Value lookup for IC50; key = O=C(N[C@@H]1COc2cccc(-c3cnc(CO)cn3)c2C1)c1ccc(OCCOCC(F)(F)F)nc1 [Example 213]
Ans. 0.316 µM

Qu. Value lookup for IC50; key = CCCCn1ccc(C(=O)N[C@@H]2COc3cccc(-c4cnc(OC)c(F)c4)c3C2)cc1=O [Example 148]
Ans. 0.794 µM

Qu. Value lookup for IC50; key = CCOc1ccc(C(=O)N[C@@H]2COc3cccc(-c4ccncc4)c3C2)cn1 [Example 25]
Ans. 2 µM

Qu. Value lookup for IC50; key = Cc1ncc(-c2cccc3c2C[C@H](NC(=O)c2ccc(OC(C)C)nc2)CO3)cn1 [Example 60]
Ans. 0.158 µM

Qu. Value lookup for IC50; key = COc1ncc(-c2cccc3c2C[C@H](NC(=O)c2ccc(C(=O)NCCCC(F)(F)F)nc2)CO3)cn1 [Example 171]
Ans. 0.126 µM

Qu. Value lookup for IC50; key = O=C(N[C@@H]1CCc2cccc(-c3ccncc3)c2C1)c1ccc(OCC(F)(F)F)nc1 [Example 12]
Ans. 0.0631 µM

Qu. Value lookup for IC50; key = O=C(N[C@@H]1COc2cccc(-c3cccnc3)c2C1)c1ccc2ncccc2n1 [Example 46]
Ans. 3.16 µM
